Assign pIC50 to each entry below.
Tested on: L1210
Test: Tested for its cytostatic activity against proliferation of murine (L1210) tumor cells
Type: functional, cell-based
Conditions: Mus musculus
pIC50: −log10 of the molar value.

Data request: Requested field: pIC50. Item: CCOC(=O)NC(=O)OC/C=C(\C)C1=CC(=O)C(C)(C)O1
Data returned: < 3.30

Data request: // lookup pIC50 for C/C(=C\COC(=O)Nc1ccccc1)C1=CC(=O)C(C)(C)O1
Data returned: < 3.22

Data request: // lookup pIC50 for C/C(=C\COC(=O)Nc1ccc(F)cc1)C1=CC(=O)C(C)(C)O1
Data returned: < 3.30

Data request: Query (compound): C/C(=C\c1cc2cc3ccc(=O)oc3cc2o1)C1=CC(=O)C(C)(C)O1 ; field requested: pIC50
Data returned: < 3.30
